// data source = ChEMBL document CHEMBL2440076

tested on: NCI-H226; experiment: Growth inhibition of human NCI-H226 cells after 48 hrs by sulforhodamine B assay; assay type: functional; conditions: NCI-H226, 48 h
Reported GI50 by item:
Property label: GI50

# Structure smiles string, Property label, Reported
rows = [
    ("O=C(Nc1cccc(-n2cc(-c3ccncc3)c(-c3ccc(Cl)c(O)c3)n2)c1)Nc1ccc(Cl)c(Cl)c1", "GI50", "1.51 µM"),
    ("COc1cc(-c2nn(-c3cccc(NC(=O)c4ccc(Cl)c(C(F)(F)F)c4)c3)cc2-c2ccncc2)ccc1Cl", "GI50", "5.9 µM"),
    ("O=C(Nc1cccc(-n2cc(-c3ccncc3)c(-c3ccc(Cl)c(O)c3)n2)c1)Nc1cccc(C(F)(F)F)c1", "GI50", "7.35 µM"),
    ("COc1cc(-c2nn(-c3cccc(NC(=O)Nc4ccc(Cl)c(C(F)(F)F)c4)c3)cc2-c2ccncc2)ccc1Cl", "GI50", "1.82 µM"),
]

###

test system: NCI-H226; assay: Growth inhibition of human NCI-H226 cells after 48 hrs by sulforhodamine B assay; format: functional; settings: NCI-H226, 48 h, read-out: LC50 (the source's name)
Recorded CC50, one value per entry.
Property label: CC50

# Structure smiles string, System tested, Reported
records = [
    ("COc1cc(-c2nn(-c3cccc(NC(=O)c4ccccc4)c3)cc2-c2ccncc2)ccc1Cl", "NCI-H226", "> 100 µM"),
    ("O=C(Nc1cccc(-n2cc(-c3ccncc3)c(-c3ccc(Cl)c(O)c3)n2)c1)Nc1ccc(Cl)c(Cl)c1", "NCI-H226", "> 32.5 µM"),
    ("O=C(Nc1cccc(-n2cc(-c3ccncc3)c(-c3ccc(Cl)c(O)c3)n2)c1)Nc1cc(C(F)(F)F)cc(C(F)(F)F)c1", "NCI-H226", "37.6 µM"),
    ("COc1cc(-c2nn(-c3cccc(NC(=O)Nc4cc(C(F)(F)F)cc(C(F)(F)F)c4)c3)cc2-c2ccncc2)ccc1Cl", "NCI-H226", "> 50 µM"),
    ("O=C(Nc1cccc(-n2cc(-c3ccncc3)c(-c3ccc(Cl)c(O)c3)n2)c1)Nc1cccc(C(F)(F)F)c1", "NCI-H226", "> 32.5 µM"),
]

###

tested on: UO-31; test: Growth inhibition of human UO31 cells after 48 hrs by sulforhodamine B assay; type: functional; conditions: UO-31, 48 h
Property label: TGI (µM)

# Structure smiles string, Unit spec, Inequality operator, Reported
data = [
    ("COc1cc(-c2nn(-c3cccc(NC(=O)c4cccc(C(F)(F)F)c4)c3)cc2-c2ccncc2)ccc1Cl", "µM", ">", 50),
    ("COc1cc(-c2nn(-c3cccc(NC(=O)c4ccccc4)c3)cc2-c2ccncc2)ccc1Cl", "µM", ">", 100),
    ("O=C(Nc1cccc(-n2cc(-c3ccncc3)c(-c3ccc(Cl)c(O)c3)n2)c1)Nc1ccc(Cl)c(C(F)(F)F)c1", "µM", "=", 3.01),
    ("COc1cc(-c2nn(-c3cccc(NC(=O)Nc4ccc(Cl)c(Cl)c4)c3)cc2-c2ccncc2)ccc1Cl", "µM", "=", 4.98),
]

###

system: DU-145; test: Growth inhibition of human DU145 cells assessed as cell growth at 10 uM after 48 hrs by sulforhodamine B assay; assay type: functional; details: DU-145, 48 h, read-out: Activity

# Structure smiles string, System tested, growth at 10 µM (%)
records = [
    ("COc1cc(-c2nn(-c3cccc(NC(=O)c4ccccc4)c3)cc2-c2ccncc2)ccc1Cl", "DU-145", 11.6),
    ("Cc1cc(C(=O)Nc2cccc(-n3cc(-c4ccncc4)c(-c4ccc(Cl)c(O)c4)n3)c2)ccc1Br", "DU-145", 103),
    ("COc1cc(-c2nn(-c3cccc(NC(=O)c4ccc(N5CCOCC5)c(C(F)(F)F)c4)c3)cc2-c2ccncc2)ccc1Cl", "DU-145", 10.9),
    ("COc1cc(-c2nn(-c3cccc(NC(=O)Nc4ccccc4)c3)cc2-c2ccncc2)ccc1Cl", "DU-145", 101),
]
